tested on: HepG2; test: Cytotoxicity against human HepG2 cells assessed as inhibition of cell growth incubated for 72 hrs by CCK-8 assay; type: functional, cell-based; settings: HepG2, 72 h
Entries and their measured IC50 follow.
// units = µM; emit number, no label

Check out these entries, answers already filled in.
// query # get_value(readout= IC50, system= HepG2) for COc1c(C)cnc(Cn2cnc3c(Cl)nc(N)nc32)c1C [BIIB021]
// result 0.113

// query Also check COc1c(C)cnc(Cn2cc(C#CCCNC(=O)CN3CCN(c4ccc(Nc5ncc6c(C)c(C(C)=O)c(=O)n(C7CCCC7)c6n5)nc4)CC3)c3c(Cl)nc(N)nc32)c1C
// result 0.547

---
// query # get_value(readout= IC50, system= HepG2) for COc1c(C)cnc(Cn2cc(C#CCCn3cc(C(=O)NCCOCCOCCNC(=O)CN4CCN(c5ccc(Nc6ncc7c(C)c(C(C)=O)c(=O)n(C8CCCC8)c7n6)nc5)CC4)nn3)c3c(Cl)nc(N)nc32)c1C
// result 2.54

Source listed as ChEMBL document CHEMBL5316290.
